Origin of values: patent US12162848B2

targetOrTestSystem: UniProtKB P17706
Sequence (P17706 1-415): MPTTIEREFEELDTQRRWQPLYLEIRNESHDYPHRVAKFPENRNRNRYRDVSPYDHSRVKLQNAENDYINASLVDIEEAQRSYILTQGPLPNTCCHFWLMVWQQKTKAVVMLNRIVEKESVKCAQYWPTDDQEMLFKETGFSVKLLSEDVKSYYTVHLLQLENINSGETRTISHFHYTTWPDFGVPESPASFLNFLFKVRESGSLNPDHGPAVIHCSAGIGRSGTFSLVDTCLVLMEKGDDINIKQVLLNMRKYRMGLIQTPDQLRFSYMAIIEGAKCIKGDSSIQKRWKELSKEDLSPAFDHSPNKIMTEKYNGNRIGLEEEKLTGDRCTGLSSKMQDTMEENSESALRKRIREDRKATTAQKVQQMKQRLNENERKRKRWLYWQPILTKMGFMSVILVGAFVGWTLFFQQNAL
pIC50: −log10 of the molar value.
recordedMetric: pIC50

Solved cases (8 shown):
CNC(=O)CN1CCN(Cc2cc(O)c(N3CC(=O)NS3(=O)=O)c(F)c2)CC1 [EXAMPLE 59] :: 6.32
O=C1CN(c2c(O)cc(-c3cccc(-c4ccccc4)c3)cc2F)S(=O)(=O)N1 [EXAMPLE 11] :: 5.87
CC(C)CCN1CCCC(c2cc(O)c(N3CC(=O)NS3(=O)=O)c(F)c2)C1 (stereo not drawn) [EXAMPLE 5] :: 5.99
N#Cc1cc(CNCc2cc(O)c(N3CC(=O)NS3(=O)=O)c(F)c2)ccc1F [EXAMPLE 45] :: 7.15
O=C1CN(c2c(O)cc(CN[C@H]3CCCN(S(=O)(=O)c4cccc(F)c4)C3)cc2F)S(=O)(=O)N1 [EXAMPLE 70] :: 7.52
CC(=O)N[C@H]1CC[C@H](NCc2cc(O)c(N3CC(=O)NS3(=O)=O)c(F)c2)CC1 [EXAMPLE 60] :: 6.39
CCN1CCC(NCc2cc(O)c(N3CC(=O)NS3(=O)=O)c(F)c2)CC1 [EXAMPLE 40] :: 6.88
O=C1CN(c2c(O)cc(-c3ccc(O)nc3)cc2F)S(=O)(=O)N1 [EXAMPLE 26] :: 8.00

1. CS(=O)(=O)N1CCC[C@@H](NCc2cc(O)c(N3CC(=O)NS3(=O)=O)c(F)c2)C1 [EXAMPLE 72]
2. O=C(O)CC(=O)N1CCC[C@H](NCc2cc(O)c(N3CC(=O)NS3(=O)=O)c(F)c2)C1 [EXAMPLE 76]
When their pIC50 values are compared, which is larger, 1 or 2 ? Respond with the label that goes with your answer.
2
(2: 7.92, 1: 7.27)

1. Cc1cc(OCC2CC2)cc(-c2cc(O)c(N3CC(=O)NS3(=O)=O)c(F)c2)c1 [EXAMPLE 21]
2. CC(=O)N1CCN(Cc2cc(O)c(N3CC(=O)NS3(=O)=O)c(F)c2)CC1 [EXAMPLE 38]
// compare: 1 vs 2 , metric pIC50, want the smaller Respond with the label that goes with your answer.
1

----------
Recorded measurements of pEC50, one per entry
System: B16-F10 cells
protocolDescription: Cell proliferation assay (CellTiter-Glo) in IFN-gamma treated B16-F10 cells
Assay type: cell-based
particulars: 120 h, mouse IFN-gamma 10 ng/mL, read-out: PTPN2 Prolif 5d B16F10 EC50
pEC50: −log10 of the molar value.

Solved cases (3 shown):
CN(C)CCNC(=O)c1cc(O)c(N2CC(=O)NS2(=O)=O)c(F)c1 :: ≤ 4.82
CN1CCC(c2cc(O)c(N3CC(=O)NS3(=O)=O)c(F)c2)CC1 :: ≤ 4.82
COCCN1CCN(Cc2cc(O)c(N3CC(=O)NS3(=O)=O)c(F)c2)CC1 :: ≤ 4.82

Can you share its pEC50? I mean this compound: "CN(C)C1CCN(Cc2cc(O)c(N3CC(=O)NS3(=O)=O)c(F)c2)CC1"
≤ 4.82

Can you share its pEC50? I mean this compound: "O=C1CN(c2c(O)cc(CN[C@H]3CCCOC3)cc2F)S(=O)(=O)N1"
5.78
